# credit: ChEMBL document CHEMBL1961873

Target: Mitogen-activated protein kinase 13 (Homo sapiens) (UniProt O15264);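 further: mean inhibition of p38delta, screened as part of the GSK PKIS kinase inhibitor set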
Sequence (whole entry): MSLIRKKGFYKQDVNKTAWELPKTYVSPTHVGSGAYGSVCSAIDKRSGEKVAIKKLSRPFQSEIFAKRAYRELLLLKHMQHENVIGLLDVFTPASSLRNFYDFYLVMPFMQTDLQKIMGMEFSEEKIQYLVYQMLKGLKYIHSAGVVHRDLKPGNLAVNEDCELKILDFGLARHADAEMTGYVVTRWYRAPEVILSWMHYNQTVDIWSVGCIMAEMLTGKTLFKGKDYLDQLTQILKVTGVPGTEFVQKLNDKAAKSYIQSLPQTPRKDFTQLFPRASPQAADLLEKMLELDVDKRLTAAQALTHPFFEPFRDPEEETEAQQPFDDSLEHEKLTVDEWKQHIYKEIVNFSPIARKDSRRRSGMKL
Conditions: at 1 µM
Metric name: inhibition (%)
Response body: numeric value in %, unit text excluded.

Use the examples below as a reference point.
CC(C)=Cc1cccc2c1/C(=N/Nc1ccc(S(N)(=O)=O)cc1)C(=O)N2 ... 1.32
COc1cc2ncn(-c3cc(O[C@H](C)c4ccccc4Cl)c(C(N)=O)s3)c2cc1OC ... 3.77
O=C1NC(=O)C(c2ccccc2Cl)=C1Nc1cccc(O)c1 ... 4.14
CCn1c(-c2nonc2N)nc2cnc(Oc3cccc(NC(=O)c4ccc(OCCN5CCOCC5)cc4)c3)cc21 ... 4.61

// below: inhibition requested for another molecule
Incoming: I would be grateful if you could share the reported inhibition for c1cnn2ncc(-c3ccnc(Nc4ccc5c(c4)OCCO5)n3)c2c1 .
Outgoing: 16.3
